Test Description: Compound solubility in water
Condition: water, Compound Solubility in Water
Measured Attribute: log10(solubility) (log10 of the value in µg/mL)

1. Cc1cc(Cl)nc2c(C(=O)N[C@H]3CC[C@H](OCC(C)C)CC3)ccn12    0.30
2. [2H]C1(NC(=O)c2ccn3c(C)cc(NC(C)=O)nc23)CCOc2ccccc21 (centres unmarked)    0.40
3. CCCCO[C@H]1CC[C@H](NC(=O)c2ccn3c(C)cc(F)nc23)CC1    1.16
4. CCCCO[C@H]1CC[C@H](NC(=O)c2ccn3c(C(F)F)cc(COC)nc23)CC1    1.07
5. COCc1cc(C)n2ccc(C(=O)Nc3ccc(-c4cocn4)cc3)c2n1    -0.52

====

Recorded activation at 0.1 µM by entry
Assayed Target: glucocerebrosidase (Gcase) (Homo sapiens, UniProt P04062)
Construct: micellar solution containing 10 nM GCase and 100 nM saposin C
Sequence (P04062 40-536): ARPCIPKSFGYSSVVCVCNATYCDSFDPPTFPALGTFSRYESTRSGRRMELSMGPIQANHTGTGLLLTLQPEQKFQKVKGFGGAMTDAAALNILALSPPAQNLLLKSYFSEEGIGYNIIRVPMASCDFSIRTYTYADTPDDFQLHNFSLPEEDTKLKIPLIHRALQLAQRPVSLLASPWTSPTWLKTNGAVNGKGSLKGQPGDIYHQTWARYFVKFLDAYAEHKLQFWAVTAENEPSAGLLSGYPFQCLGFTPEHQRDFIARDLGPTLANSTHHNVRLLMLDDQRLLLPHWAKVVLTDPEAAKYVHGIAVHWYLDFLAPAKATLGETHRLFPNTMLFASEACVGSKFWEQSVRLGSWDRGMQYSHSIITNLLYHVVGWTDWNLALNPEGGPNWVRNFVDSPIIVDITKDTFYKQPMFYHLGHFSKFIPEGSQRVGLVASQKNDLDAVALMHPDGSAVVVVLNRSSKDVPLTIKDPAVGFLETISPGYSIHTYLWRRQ
Test Description: Glucocerebrosidase (Gcase) activation assay, 4-methylumbelliferyl-beta-D-glucopyranoside substrate, fluorescence readout
Assay type: biochemical
Condition: test compound at 0.1 μM; read-out: Percent Gcase Activation, 0.1 μM Test Compound
Measured Attribute: activation at 0.1 µM

1) Cc1cc(C)n2ccc(C(=O)NC3CCOc4ccc(F)cc43)c2n1 (stereo not shown) [III-225]    > 20%
2) C#CCCCOC1CCC(NC(=O)c2ccn3c(C)cc(C)nc23)C1 (stereo not shown) [III-272]    < 10%
3) Cc1cc(C)n2ccc(C(=O)NC3(C)CCCc4ncncc43)c2n1 (stereo not shown) [III-175]    < 10%
4) Cc1cc(C)n2ccc(C(=O)NC3CCOc4ccc(-c5ncco5)cc43)c2n1 (stereo not shown) [III-207]    < 10%
5) Cc1cc(C)n2ccc(C(=O)NC(C)(C)c3ccccc3)c2n1 [III-91]    > 20%
6) Cc1cc(C)n2ccc(C(=O)NC3CCOc4cc(F)ccc43)c2n1 (stereo not shown) [III-196]    10 to 20%
7) Cc1cc(C(F)F)nc2c(C(=O)Nc3ccc(-c4cocn4)cc3)ccn12 [III-30]    > 20%
8) Cc1cc(C)n2ccc(C(=O)Nc3ccc(N4CCCCC4)cc3)c2n1 [III-17]    < 10%
9) Cc1cc(C)n2ccc(C(=O)NC3CC=C(c4ncco4)CC3)c2n1 (stereo not shown) [III-247]    < 10%
10) C#CCCCCO[C@H]1CC[C@H](NC(=O)c2ccn3c(C)cc(C)nc23)CC1 [III-208]    > 20%
11) Cc1cc(C)n2ccc(C(=O)NC3CCCc4ccccc43)c2n1 (stereo not shown) [III-167]    > 20%
12) CCCCCO[C@H]1CC[C@H](NC(=O)c2ccn3c(COC)cc(COC)nc23)CC1 [III-154]    > 20%
13) Cc1cc(C)n2ccc(C(=O)NC3CCN(c4ccsc4)CC3)c2n1 [III-115]    < 10%
14) Cc1cc(C)n2ccc(C(=O)NC3CC=C(CCCO)c4ccccc43)c2n1 (stereo not shown) [III-144]    10 to 20%
15) Cc1cc(C)n2ccc(C(=O)Nc3ccc(-c4cnn(C)c4)nc3)c2n1 [III-21]    < 10%
16) Cc1cc(C)n2ccc(C(=O)Nc3ccc(C4=NCCO4)cc3Cl)c2n1 [III-219]    > 20%
17) CCCCO[C@H]1CC[C@H](NC(=O)c2ccn3c(COC)cc(C(C)C)nc23)CC1 [III-36]    > 20%
18) COCC#Cc1ccc(NC(=O)c2ccn3c(C)cc(C)nc23)cc1 [III-4]    > 20%
19) CCOCCOC1CCC(NC(=O)c2ccn3c(C)cc(C)nc23)c2ccccc21 (stereo not shown) [III-231]    10 to 20%
